From: paper PMC12592502

target: PBP1b (Acinetobacter baumannii)
pIC50: −log10 of the molar value.
Assay Readout: pIC50

INSERT INTO measurements (molecule, assay_readout, value_measured) VALUES
  ('N[C@@H](C(=O)N[C@@H]1C(=O)N2C(C(=O)O)=C(Cl)CC[C@H]12)c1ccccc1 [LOR, loracarbef, reference compound]', 'pIC50', '< 4.30');

###

Quick reference for IC50 among some molecules
biological target: UniProt:A6T696; experiment: Membrane PBP binding assay, competition with Bocillin FL; design: species or system K. pneumoniae ATCC 13883; conditions: K. pneumoniae ATCC 13883 membranes; read-out: IC50 PBP2
Sequence (A6T696 entry or part of it): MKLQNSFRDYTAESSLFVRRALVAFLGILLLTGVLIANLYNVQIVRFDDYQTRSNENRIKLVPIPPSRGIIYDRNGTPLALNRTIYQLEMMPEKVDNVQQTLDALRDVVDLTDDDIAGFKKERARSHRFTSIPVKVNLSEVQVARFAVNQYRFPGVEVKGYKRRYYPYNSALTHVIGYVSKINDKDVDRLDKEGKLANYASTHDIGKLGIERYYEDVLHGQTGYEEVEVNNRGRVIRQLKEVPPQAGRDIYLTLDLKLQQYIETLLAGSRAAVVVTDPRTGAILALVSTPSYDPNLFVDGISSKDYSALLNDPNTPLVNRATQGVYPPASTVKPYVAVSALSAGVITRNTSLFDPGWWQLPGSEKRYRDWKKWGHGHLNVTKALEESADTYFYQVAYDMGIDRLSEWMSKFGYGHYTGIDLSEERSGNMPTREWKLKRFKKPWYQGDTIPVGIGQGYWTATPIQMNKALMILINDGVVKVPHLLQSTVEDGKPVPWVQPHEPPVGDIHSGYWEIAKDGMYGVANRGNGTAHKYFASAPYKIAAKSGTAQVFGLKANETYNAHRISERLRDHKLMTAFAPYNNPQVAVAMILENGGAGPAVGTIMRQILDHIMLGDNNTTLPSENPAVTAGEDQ
Assay Readout: IC50 (µM)

INSERT INTO measurements (molecule, tested_system, value_unit, result_qualifier, value_measured) VALUES
  ('O=C(CN(CCCCNC(=O)c1cccc(O)c1O)C(=O)c1cccc(O)c1O)NC(C(=O)NC1C(=O)N2C(C(=O)O)=C(Cl)CCC12)c1ccccc1 (stereo not shown)', 'UniProt:A6T696', 'µM', '=', 33.9),
  ('CC1(C)S[C@@H]2[C@H](NC(=O)[C@H](N)c3ccccc3)C(=O)N2[C@H]1C(=O)O [AMP, ampicillin, reference compound]', 'UniProt:A6T696', 'µM', '=', 9.2),
  ('CC1(C)SC2C(NC(=O)C(NC(=O)CN(CCCCNC(=O)c3cccc(O)c3O)C(=O)c3cccc(O)c3O)c3ccccc3)C(=O)N2C1C(=O)O (stereo not shown)', 'UniProt:A6T696', 'µM', '=', 5.1),
  ('N[C@@H](C(=O)N[C@@H]1C(=O)N2C(C(=O)O)=C(Cl)CC[C@H]12)c1ccccc1 [LOR, loracarbef, reference compound]', 'UniProt:A6T696', 'µM', '>', 50);

###

target: purified PBP3 of P. aeruginosa (PaPBP3) (Pseudomonas aeruginosa, UniProt G3XD46); construct: (residues 53 to 579) from P. aeruginosa ATCC 27853 (PaPBP3); His6 (C); made in house; host or cells: E. coli BL21 DE3; assay: biochemical; assay type: binding
Sequence (G3XD46 53-579): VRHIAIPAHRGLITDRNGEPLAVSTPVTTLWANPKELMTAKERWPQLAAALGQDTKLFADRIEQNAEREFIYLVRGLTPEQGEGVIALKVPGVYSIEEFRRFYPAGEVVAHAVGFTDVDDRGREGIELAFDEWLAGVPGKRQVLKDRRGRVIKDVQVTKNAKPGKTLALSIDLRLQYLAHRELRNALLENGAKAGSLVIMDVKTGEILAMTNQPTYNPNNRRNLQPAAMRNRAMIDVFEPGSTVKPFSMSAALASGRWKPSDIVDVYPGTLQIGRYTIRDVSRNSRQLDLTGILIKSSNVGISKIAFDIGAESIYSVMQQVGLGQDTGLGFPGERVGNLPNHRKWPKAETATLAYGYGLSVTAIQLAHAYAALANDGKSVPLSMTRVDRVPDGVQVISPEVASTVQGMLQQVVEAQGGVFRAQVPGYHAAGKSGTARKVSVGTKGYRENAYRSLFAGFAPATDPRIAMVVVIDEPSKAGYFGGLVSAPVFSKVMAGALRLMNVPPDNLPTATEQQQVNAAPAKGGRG
pIC50: −log10 of the molar value.
Assay Readout: pIC50

INSERT INTO measurements (compound, value_measured) VALUES
  ('CC1(C)S[C@@H]2[C@H](NC(=O)[C@H](N)c3ccccc3)C(=O)N2[C@H]1C(=O)O [AMP, ampicillin, reference compound]', 7.13);

###

Quick reference for MIC among some compounds
system: E. coli ATCC 25922; test: MIC, broth microdilution (CLSI); type: cell-based, Escherichia coli; conditions: Escherichia coli, ATCC25922, ID-MHBCA + 1 µg/mL supplemental iron
Assay Readout: MIC (µM)

INSERT INTO results (compound, value_unit, value_measured) VALUES
  ('CC1(C)S[C@@H]2[C@H](NC(=O)[C@H](N)c3ccccc3)C(=O)N2[C@H]1C(=O)O [AMP, ampicillin, reference compound]', 'µM', 25),
  ('O=C(CCC(=O)N(CCCCNC(=O)c1cccc(O)c1O)CCCNC(=O)c1cccc(O)c1O)NCCCCCN(O)C(=O)CCCC(=O)NC(C(=O)NC1C(=O)N2C(C(=O)O)=C(Cl)CSC12)c1ccccc1 (stereo not shown)', 'µM', 25),
  ('CC1(C)SC2C(NC(=O)C(NC(=O)CN(CCCCNC(=O)c3cccc(O)c3O)C(=O)c3cccc(O)c3O)c3ccccc3)C(=O)N2C1C(=O)O (stereo not shown)', 'µM', 0.2),
  ('O=C(CN(CCCCNC(=O)c1cccc(O)c1O)C(=O)c1cccc(O)c1O)NC(C(=O)NC1C(=O)N2C(C(=O)O)=C(Cl)CCC12)c1ccccc1 (stereo not shown)', 'µM', 0.1);
